- assayed.system: human V1a receptor (Homo sapiens)
- experimental.protocol: Cellular in vitro assay for vasopressin receptor activity, V1a cell line (aequorin luminescence)
- stated.conditions: CHO cell line transfected with human V1a receptor; agonist [Arg8]-vasopressin at EC50 concentration; read-out: IC50hV1a
readout: log10(IC50) (log10 of the value in nM)
// stored as log10 of IC50 expressed in nM

Answered cases to consult:
molecule | readout | value.measured
CC(F)(F)c1nc(Cn2nc(-c3ccc(Cl)cc3)n(C[C@H](O)C(F)(F)F)c2=O)nn1-c1c(F)cccc1Cl | log10(IC50) | 0.47
CC(F)c1nc(Cn2nc(-c3ccc(Cl)cc3)n(C[C@H](O)C(F)(F)F)c2=O)nn1-c1ccccc1OC(F)(F)F (mixture of isomers) [Example 25] | log10(IC50) | 0.43
CC(F)(F)c1nc(Cn2nc(-c3ccc(Cl)cc3)n(C[C@H](O)C(F)(F)F)c2=O)nn1-c1cccc(F)c1 | log10(IC50) | 1.19
CC(F)(F)c1nc(Cn2nc(-c3ccc(Cl)cc3)n(C[C@H](O)C(F)(F)F)c2=O)nn1-c1ccccc1S(N)(=O)=O | log10(IC50) | 1.76

Next up:
Given item Cc1ccccc1-n1nc(Cn2nc(-c3ccc(Cl)cc3)n(C[C@H](O)C(F)(F)F)c2=O)nc1C(C)F (single isomer, unassigned) [Example 36] , the value recorded as its log10(IC50) is -0.19

---

- assayed.system: human V1a receptor (Homo sapiens)
- experimental.protocol: Cellular in vitro assay for vasopressin receptor activity, V1a cell line (aequorin luminescence)
- stated.conditions: CHO cell line transfected with human V1a receptor; agonist [Arg8]-vasopressin at EC50 concentration; read-out: IC50hV1a
In this section we review reported pIC50 values for a set of compounds.
// pIC50 here means minus log10 of the molar concentration (mol/L)

Answered cases to consult:
compound | value.measured
CC(F)c1nc(Cn2nc(-c3ccc(Cl)cc3)n(C[C@H](O)C(F)(F)F)c2=O)nn1-c1cccc(F)c1 (single isomer, unassigned) [Example 14] | 8.01
CCc1cccc(C)c1-n1nc(Cn2nc(-c3ccc(Cl)cc3)n(C[C@H](O)C(F)(F)F)c2=O)nc1C(C)(F)F [Example 73] | 7.39
CC(F)(F)c1nc(Cn2nc(-c3ccc(Cl)cc3)n(C[C@H](O)C(F)(F)F)c2=O)nn1-c1ccccc1C(F)(F)F [Example 60] | 8.76
CC(F)c1nc(Cn2nc(-c3ccc(Cl)cc3)n(C[C@H](O)C(F)(F)F)c2=O)nn1-c1ccccc1C(F)(F)F (single isomer, unassigned) [Example 23] | 8.43
CC(F)c1nc(Cn2nc(-c3ccc(Cl)cc3)n(C[C@H](O)C(F)(F)F)c2=O)nn1-c1ccccc1[N+](=O)[O-] (mixture of isomers) [Example 37] | 8.47

Tested system human V1a receptor (Homo sapiens); pIC50 recorded for CC(F)c1nc(Cn2nc(-c3ccc(Cl)cc3)n(C[C@H](O)C(F)(F)F)c2=O)nn1-c1cccc(Cl)c1 (single isomer, unassigned) [Example 17] was 8.03

Tested system human V1a receptor (Homo sapiens); pIC50 recorded for CCc1ccccc1-n1nc(Cn2nc(-c3ccc(Cl)cc3)n(C[C@H](O)C(F)(F)F)c2=O)nc1C(C)F (mixture of isomers) [Example 28] was 8.73

---

In this section we review reported ratio IC50 hV2/hV1a values for a set of molecules.
- assayed.system: human V1a receptor (Homo sapiens)
- Construct: expressed in transfected cells; host or cells: CHO K1 (ATCC), also stably transfected with a modified aequorin
- experimental.protocol: Cellular in vitro assay for vasopressin receptor activity, V1a cell line (aequorin luminescence)
- Type: cell-based
- stated.conditions: ratio of the IC50 on human V2 to the IC50 on human V1a

molecule | ratio IC50 hV2/hV1a
CSc1ccccc1-n1nc(Cn2nc(-c3ccc(Cl)cc3)n(C[C@H](O)C(F)(F)F)c2=O)nc1C(C)(F)F | 0.7
CC(F)c1nc(Cn2nc(-c3ccc(Cl)cc3)n(C[C@H](O)C(F)(F)F)c2=O)nn1-c1ccccc1C#N (single isomer, unassigned) [Example 39] | 11.7
CC(F)c1nc(Cn2nc(-c3ccc(Cl)cc3)n(C[C@H](O)C(F)(F)F)c2=O)nn1-c1ncccc1Cl (single isomer, unassigned) [Example 20] | 4.4
CC(F)c1nc(Cn2nc(-c3ccc(Cl)cc3)n(C[C@H](O)C(F)(F)F)c2=O)nn1-c1ncccc1Cl (single isomer, unassigned) [Example 21] | 8.1
NCC(F)(F)c1nc(Cn2nc(-c3ccc(Cl)cc3)n(C[C@H](O)C(F)(F)F)c2=O)nn1-c1ccccc1Cl.O=CO | 3.5

Next up:
Given item CC(F)c1nc(Cn2nc(-c3ccc(Cl)cc3)n(C[C@H](O)C(F)(F)F)c2=O)nn1-c1c(Cl)cccc1Cl (mixture of isomers) , the value recorded as its ratio IC50 hV2/hV1a is 1.5

---

In this section we review reported log10 IC50 values for a set of compounds.
- assayed.system: human V1a receptor (Homo sapiens)
- experimental.protocol: Cellular in vitro assay for vasopressin receptor activity, V1a cell line (aequorin luminescence)
- stated.conditions: CHO cell line transfected with human V1a receptor; agonist [Arg8]-vasopressin at EC50 concentration; read-out: IC50hV1a
// stored as log10 of IC50 expressed in nM

compound | log10 IC50
O=c1n(Cc2nc(C(F)F)n(-c3cccc(Cl)c3)n2)nc(-c2ccc(Cl)cc2)n1C[C@H](O)C(F)(F)F | 1.56
CC(F)c1nc(Cn2nc(-c3ccc(Cl)cc3)n(C[C@H](O)C(F)(F)F)c2=O)nn1-c1ncccc1Cl (single isomer, unassigned) [Example 21] | 0.19
Cc1ccccc1-n1nc(Cn2nc(-c3ccc(Cl)cc3)n(C[C@H](O)C(F)(F)F)c2=O)nc1C(C)F (mixture of isomers) [Example 34] | -0.15
NCC(F)(F)c1nc(Cn2nc(-c3ccc(Cl)cc3)n(C[C@H](O)C(F)(F)F)c2=O)nn1-c1ccccc1Cl.O=CO | -0.04
CC(F)(F)c1nc(Cn2nc(-c3ccc(Cl)cc3)n(C[C@H](O)C(F)(F)F)c2=O)nn1-c1cnccc1Cl | -0.03

Given item `O=c1n(Cc2nc(C(F)(F)C3CCOCC3)n(-c3ccccc3Cl)n2)nc(-c2ccc(Cl)cc2)n1C[C@H](O)C(F)(F)F` , the value recorded as its log10 IC50 is 0.15

Given item CC(F)c1nc(Cn2nc(-c3ccc(Cl)cc3)n(C[C@H](O)C(F)(F)F)c2=O)nn1-c1cccc(Cl)c1 (single isomer, unassigned) [Example 18] , the value recorded as its log10 IC50 is 1.78

Given item CSc1ccccc1-n1nc(Cn2nc(-c3ccc(Cl)cc3)n(C[C@H](O)C(F)(F)F)c2=O)nc1C(C)F (mixture of isomers) , the value recorded as its log10 IC50 is -0.07

---

- assayed.system: human V1a receptor (Homo sapiens, UniProt P37288)
- Construct: expressed in transfected cells; host or cells: CHO K1 (ATCC), also stably transfected with a modified aequorin
- Sequence (P37288 whole entry): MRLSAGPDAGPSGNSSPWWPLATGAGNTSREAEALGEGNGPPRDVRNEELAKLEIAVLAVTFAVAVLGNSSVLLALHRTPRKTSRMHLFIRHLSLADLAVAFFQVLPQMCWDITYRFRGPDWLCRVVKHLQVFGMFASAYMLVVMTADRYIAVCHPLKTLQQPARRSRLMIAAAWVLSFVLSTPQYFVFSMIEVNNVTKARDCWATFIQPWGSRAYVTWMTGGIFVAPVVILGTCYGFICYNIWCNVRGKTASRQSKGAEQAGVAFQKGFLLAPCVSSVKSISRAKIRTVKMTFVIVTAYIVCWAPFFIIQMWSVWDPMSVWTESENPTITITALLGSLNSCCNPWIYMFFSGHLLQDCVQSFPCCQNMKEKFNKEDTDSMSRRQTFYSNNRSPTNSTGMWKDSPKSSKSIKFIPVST
- experimental.protocol: Cellular in vitro assay for vasopressin receptor activity, V1a cell line (aequorin luminescence)
- Assay type: cell-based
- stated.conditions: ratio of the IC50 on human V2 to the IC50 on human V1a
Consider the cut-off 4. If the recorded ratio IC50 hV2/hV1a is strictly smaller, the label is criterion met; if not, the label is criterion not met.

Sample answers from the record:
molecule | class.label
CC(F)(F)c1nc(Cn2nc(-c3ccc(Cl)cc3)n(C[C@H](O)C(F)(F)F)c2=O)nn1-c1c(F)cccc1Cl | criterion met
Cc1ccccc1-n1nc(Cn2nc(-c3ccc(Cl)cc3)n(C[C@H](O)C(F)(F)F)c2=O)nc1C(C)(F)F | criterion met
CC(F)(F)c1nc(Cn2nc(-c3ccc(Cl)cc3)n(C[C@H](O)C(F)(F)F)c2=O)nn1-c1ncccc1C(F)(F)F | criterion not met
CC(F)c1nc(Cn2nc(-c3ccc(Cl)cc3)n(C[C@H](O)C(F)(F)F)c2=O)nn1-c1ccccc1C(F)(F)F (single isomer, unassigned) [Example 24] | criterion not met
Cc1ccccc1-n1nc(Cn2nc(-c3ccc(Cl)cc3)n(C[C@H](O)C(F)(F)F)c2=O)nc1C(C)F (single isomer, unassigned) [Example 35] | criterion met
CC(F)(F)c1nc(Cn2nc(-c3ccc(Cl)cc3)n(C[C@H](O)C(F)(F)F)c2=O)nn1-c1ccccc1C(F)(F)F | criterion not met
CC(F)(F)c1nc(Cn2nc(-c3ccc(Cl)cc3)n(C[C@H](O)C(F)(F)F)c2=O)nn1-c1ccccc1Cl | criterion met
CC(F)c1nc(Cn2nc(-c3ccc(Cl)cc3)n(C[C@H](O)C(F)(F)F)c2=O)nn1-c1ccccc1OC(F)F (single isomer, unassigned) [Example 33] | criterion met
CC(F)c1nc(Cn2nc(-c3ccc(Cl)cc3)n(C[C@H](O)C(F)(F)F)c2=O)nn1-c1ccccc1S(N)(=O)=O (mixture of isomers) | criterion met
CCc1ccccc1-n1nc(Cn2nc(-c3ccc(Cl)cc3)n(C[C@H](O)C(F)(F)F)c2=O)nc1C(C)F (single isomer, unassigned) [Example 29] | criterion met

Strictly below 4 in ratio IC50 hV2/hV1a? CC(F)c1nc(Cn2nc(-c3ccc(Cl)cc3)n(C[C@H](O)C(F)(F)F)c2=O)nn1-c1ccccc1OC(F)(F)F (mixture of isomers) [Example 25]
criterion not met

Strictly below 4 in ratio IC50 hV2/hV1a? CC(F)c1nc(Cn2nc(-c3ccc(Cl)cc3)n(C[C@H](O)C(F)(F)F)c2=O)nn1-c1ccccc1OC(F)(F)F (single isomer, unassigned) [Example 26]
criterion not met
